test system: KM12 colon; test: NCI tumour cell line growth inhibition, 48 h; in the data active = GI50 below about 0.43 µM; inactive = the rest
Output constraint: value belongs to active, inactive

# example entries with known answers
CCOC(=O)c1cnc2oc3ccc(O)cc3c2c1C :: inactive
CC/C=C1/C(=O)C=C[C@@H]1C/C=C\CCCC(=O)OC :: inactive
COc1ccc(-c2cn(-c3cc(OC)c(OC)c(OC)c3)c(SCc3ccccc3)n2)cc1OC :: inactive
COc1cnc2c(c1)C(=O)c1c-2n(CCCn2ccnc2)c(=O)c2cc(F)ccc12 :: active
COc1cc(C[C@H]2c3cc(OC)c(OC)cc3CCN2C)c(Oc2cc3c(cc2OC)-c2c(OC)c(OC)cc4c2[C@H](C3)N(C)CC4)cc1OC :: inactive
C=C1CCC2C3(C)COC(c4ccc(N(C)C)cc4)OC3CCC2(C)C1C/C=C1/C(=O)OCC1O (stereo not given) :: inactive
Cc1cc2c(cc1C)N(C(=O)CCl)CC(=O)N2 :: inactive
CN(C)CCN1C(=O)c2ccccc2N(C)c2ccccc21 :: inactive
COc1cc([N+](=O)[O-])c(OC)cc1-c1nc2sc(Cl)cn2c1/C(N)=N/C(=N)N :: inactive
c1ccc2[nH]c(-c3ccc(-c4nccc5c4[nH]c4ccccc45)cc3)nc2c1 :: inactive

From here, focus on the item given below.
Name the outcome recorded for `Nc1c(C(=O)c2cccc(-c3ccncc3)c2)cnn1-c1ccc(F)cc1F` in the assay. inactive

----------
Listing of recorded log10(TGI) by entry.
test system: MALME-3M melanoma; test: NCI tumour cell line growth inhibition, 48 h
A difference of one corresponds to tenfold TGI; all values are log10 with TGI in µM.

Here are 8 compounds together with their reported answers.
O=[N+]([O-])/C(C(Cl)=C(Cl)Cl)=C(\N1CCOCC1)n1nnc2ccccc21 :: 1.55
C=C1C(=O)O[C@H]2[C@H]1CC/C(COC(=O)NCc1ccc(Cn3c(=O)sn(CCCl)c3=O)cc1)=C\CC[C@@]1(C)O[C@@H]21 :: 0.54
Cn1c2ccccc2c2c(-c3ccccc3)cc3c(c21)C(=O)C=CC3=O :: 0.62
Nc1ncnn2c(C3OC(CO)C(O)C3O)ccc12 (stereo not drawn) :: -0.55
Cc1cc2c(cc1C)N(C(=O)CCl)CC(=O)N2 :: 0.58
C=C(C)C(=O)O[C@H]1CC(=C)[C@@H]2C[C@H](O)[C@](O)(CCl)[C@@H]2[C@H]2OC(=O)C(=C)[C@@H]21 :: 0.56
C[N+](C)(C)CC(=O)N/N=C/c1oc(-c2c(O)ccc3ccccc23)c(-c2c(O)ccc3ccccc23)c1[N+](=O)[O-] :: 1.45
c1ccc2[nH]c(-c3ccc(-c4nccc5c4[nH]c4ccccc45)cc3)nc2c1 :: 0.56

Suppose we examine the compound CNc1ccc(C(=O)CC(O)CCC(C)C2OC(=O)CC(O)CC(=O)CC(O)CC(O)CC(O)CC(O)CC3(O)CC(O)C(C(=O)N4CCOCC4)C(CC(OC4OC(C)C(O)C(N)C4O)/C=C/C=C/C=C/C=C\C=C/C=C/C=C/C2C)O3)cc1 (stereo not drawn) ; what log10(TGI) value has been reported? -0.40

----------
tested on: SK-MEL-5 melanoma; assay: NCI tumour cell line growth inhibition, 48 h
MEASURED_PROPERTY: TGI

As a guide, the following entries are already answered.
C=CCN1C(=O)C=C(c2ccccc2)n2ncc3cccc1c32 :: > 100 µM
O=C(O)c1cc([N+](=O)[O-])cc2c(=O)c3cnccc3[nH]c12 :: > 100 µM
O=C1/C(=C\c2ccc(O)cc2)CCC/C1=C/c1ccc(Cl)c(Cl)c1 :: 19.6 µM

TGI for `CN(C)CCN1C(=O)c2ccccc2N(C)c2ccccc21` ? > 100 µM

Looking for the measured TGI of C=CCOc1cccc(C2(O)c3ccccc3C3=NCCCN32)c1 (stereo unspecified) , can you help? 41.9 µM

----------
tested on: A498 renal; experiment: NCI tumour cell line growth inhibition, 48 h
MEASURED_PROPERTY: log10(TGI) (log10 of the value in µM)
Please note: log10 values; quantity TGI; unit µM.

CN(C)CC/C(=N\Nc1ccc([N+](=O)[O-])cc1)c1ccccc1 :: 1.43
C#Cc1c(F)ccc2cc(O)cc(-c3ncc4c(N5CC6CCC(C5)N6)nc(OC[C@@]56CCCN5C[C@H](F)C6)nc4c3F)c12 :: 1.53
Cc1cc(O)c(C(C)C)cc1S(=O)(=O)O (tested in a mixture with another compound) :: 0.33
Nc1ncnc2nc[nH]c12 :: 1.05
Cn1c(=O)c(Br)c(C=O)n(CCO[N+](=O)[O-])c1=O :: 1.52
COc1cc(C(=O)O[C@H](C(=O)NCCCCCNC(=O)[C@@H](OC(=O)c2cc(OC)cc3c(C)cccc23)[C@]2(C)CO2)[C@]2(C)CO2)c2cccc(C)c2c1 :: 0.72
O=C1/C(=C\c2ccc(O)cc2)CCC/C1=C/c1ccc(Cl)c(Cl)c1 :: 1.16
C=C(C)C(=O)O[C@H]1CC(=C)[C@@H]2C[C@H](O)[C@](O)(CCl)[C@@H]2[C@H]2OC(=O)C(=C)[C@@H]21 :: 1.43
C[C@H]1[C@H](C)CC[C@]2(CO)CC[C@]3(C)C(=CC[C@@H]4[C@@]5(C)CCCNC(C)(C)[C@@H]5CC[C@]43C)[C@H]12 :: 0.52
C=C1c2ccccc2C(=O)c2c1c1c(C(=O)OC)c(O)ccc1n2Cc1ccccc1 :: 0.36

Param item = `Cn1c2ccccc2c2c(-c3ccccc3)cc3c(c21)C(=O)C=CC3=O` ; retrieve measured log10(TGI). 0.79

May I ask what log10(TGI) has been recorded for `CCN(CC)CCCCNc1c2ccccc2[n+](C)c2c1[nH]c1ccccc12` ? 0.38

I am curious: what log10(TGI) value has been reported for Cc1ccc(S(=O)(=O)OC2CSS(=O)CC2OS(=O)(=O)c2ccc(C)cc2)cc1 (stereo unspecified) ? 1.48

Would you mind telling me what log10(TGI) value was observed for `COc1cc(O)c2c(=O)cc(-c3ccc(O)cc3O)oc2c1CC=C(C)C` ? 1.82

Entry under review: CCOc1cc(NC(C)=O)ccc1C(=O)NN1C(=O)C(Cl)C1c1ccccc1 (stereo unspecified) . Reported log10(TGI)? 1.50

----------
tested on: A498 renal; experiment: NCI tumour cell line growth inhibition, 48 h
Each entry below carries its reported TGI.
Answer format: numeric, µM implied, no suffix.

C=CCNC1=C2C[C@@H](C)C[C@@H](OC)[C@H](OC(=O)CCN)[C@H](C)/C=C(\C)[C@@H](OC(N)=O)[C@H](OC)/C=C\C=C(/C)C(=O)NC(=CC1=O)C2=O :: 17.6
COc1cc(OC(=O)c2ccccc2)cc2c1C(=O)C=CC2=O :: 37.8

# ---- query molecule ----
What does the record list as TGI for `COCCOC(=O)c1c(C)n([O-])c2cc(Cl)c(Cl)cc2[n+]1=O` ? 61.9

----------
system: MDA-MB-435
Return exactly one item of Yes (active), No (inactive)

Answered cases to consult:
O=C(CCCCCCCCC(=O)N/N=C\c1ccccc1O)N/N=C\c1ccccc1O :: No
COc1cc(C(=O)O[C@H](C(=O)NCCCCCNC(=O)[C@@H](OC(=O)c2cc(OC)cc3c(C)cccc23)[C@]2(C)CO2)[C@]2(C)CO2)c2cccc(C)c2c1 :: Yes
c1ccc2[nH]c(-c3ccc(-c4nccc5c4[nH]c4ccccc45)cc3)nc2c1 :: No

// switching to the query molecule
Status in this test for C=C1CCC2C3(C)COC(c4ccc(N(C)C)cc4)OC3CCC2(C)C1C/C=C1/C(=O)OCC1O (centres undefined) ? No

----------
molecules and their reported TGI
system: UO-31 renal; assay: NCI tumour cell line growth inhibition, 48 h

C=C(C)C(=O)O[C@H]1CC(=C)[C@@H]2C[C@H](O)[C@](O)(CCl)[C@@H]2[C@H]2OC(=O)C(=C)[C@@H]21 :: 9.27 µM
C[C@H]1[C@H](C)CC[C@]2(CO)CC[C@]3(C)C(=CC[C@@H]4[C@@]5(C)CCCNC(C)(C)[C@@H]5CC[C@]43C)[C@H]12 :: 2.99 µM
COCCOC(=O)c1c(C)n([O-])c2cc(Cl)c(Cl)cc2[n+]1=O :: 10.5 µM

Look up TGI: `Nc1ncnc2c1ncn2C=C=CCO` > 100 µM

Reported TGI, molecule `COc1ccc2c3c1O[C@]1(C)C34CCN(C)C(C2)C42C=C[C@@]1(OC)c1c(O)ccc(O)c12` : ____ > 100 µM

Dear colleague, I am looking for the recorded TGI of the following molecule: `CNS(=O)(=O)NN(C)S(=O)(=O)c1ccccc1` > 100 µM

Sample `NC1=C(NC(=O)Cc2ccc(F)cc2)C(=O)c2ccccc2C1=O` — what was its TGI? > 100 µM

What value of TGI has been recorded for this entry: `CN[C@@H](C)C(=O)N[C@H](C(=O)N1CCC[C@H]1C(=O)Nc1snnc1-c1ccccc1)C1CCCCC1` > 100 µM

Tell me the measured TGI of O=c1[nH]c2cc(Cl)ccc2nc1/C(=N\O)C(O)c1cccc([N+](=O)[O-])c1 (stereo not given) , please. > 100 µM

The measured values listed here are drawn from PubChem BioAssay (NCI).
